- Tested on: FLK-1 receptor
- TEST DETAILS: FLK-1 Assay (cellular/catalytic ELISA, VEGF-stimulated phosphotyrosine)
- Assay type: cell-based
- Parameters: concentration or dose not given beside the values
We use 10% as the dividing line for Flk Kinase % Inhibition (P.110): on or above the line is true, below is false.

O=C1Nc2c(Br)cc(Br)cc2C1=Cc1cc(C(F)(F)F)cc(C(F)(F)F)c1
false
Cc1c(Br)cc(Br)c2c1C(=Cc1ccc(N3CCN(C=O)CC3)cc1)C(=O)N2
false
Cc1c(Br)cc(Br)c2c1C(=Cc1cccc(C(F)(F)F)c1)C(=O)N2
true
O=C1Nc2c(Br)cc(Br)cc2C1=Cc1cccc(C(F)(F)F)c1
false
O=C1Nc2ccc(I)cc2C1=Cc1ccc(Cl)cc1
false
Cc1c(Br)ccc2c1C(=Cc1cc(F)cc(F)c1)C(=O)N2
true
Cc1c(Br)cc(Br)c2c1C(=Cc1ccc([N+](=O)[O-])c(O)c1)C(=O)N2
false
COc1ccc2[nH]cc(C=C3C(=O)Nc4c(Br)cc(Br)c(C)c43)c2c1
true
COc1ccc(C=C2C(=O)Nc3c(Br)cc(Br)c(C)c32)cc1
true
O=C1Nc2ccc(S(=O)(=O)N3CCOCC3)cc2C1=Cc1cc(C(F)(F)F)cc(C(F)(F)F)c1
true
Cc1c(Br)cc(Br)c2c1C(=Cc1cc([N+](=O)[O-])ccc1O)C(=O)N2
true
Cc1c(Br)cc(Br)c2c1C(=Cc1c(Br)cnn1-c1ccc(Cl)cc1)C(=O)N2
false
Cc1c(Br)cc(Br)c2c1C(=Cc1cc(O)c3c(c1O)CCCC3)C(=O)N2
false
Cc1c(Br)cc(Br)c2c1C(=Cc1ccccc1OCC(=O)O)C(=O)N2
false
CNS(=O)(=O)c1ccc2c(c1)C(=Cc1cccc(F)c1O)C(=O)N2
false
Cc1c(Br)cc(Br)c2c1C(=Cc1ccc(-c3ccccc3)cc1)C(=O)N2
true
O=C1Nc2ccc(S(=O)(=O)N3CCOCC3)cc2C1=Cc1cccc2ccccc12
true
O=C1Nc2ccc(CCCl)cc2C1=Cc1cccc(C(F)(F)F)c1
false
O=C1Nc2ccc(I)cc2C1=Cc1ccc(Br)s1
true
CCc1ccc(C=C2C(=O)Nc3ccc(Br)c(C)c32)cc1
true
Cc1c(Br)ccc2c1C(=Cc1cc(Cl)cc(Cl)c1O)C(=O)N2
false
CNS(=O)(=O)c1ccc2c(c1)C(=Cc1ccccc1C(F)(F)F)C(=O)N2
false
COc1cccc(C=C2C(=O)Nc3ccc(S(=O)(=O)Nc4ccc(C(F)(F)F)cc4)cc32)c1
true
Cc1c(Br)cc(Br)c2c1C(=Cc1ccc(N3CCOCC3)cc1)C(=O)N2
true
Cc1ccccc1C=C1C(=O)Nc2ccc(CCCl)cc21
false
CCOc1ccccc1C=C1C(=O)Nc2c(Br)cc(Br)c(C)c21
false
O=C1Nc2ccc(CCCl)cc2C1=Cc1cc(Cl)cc(Cl)c1O
true
CCN(CC)c1ccc(C=C2C(=O)Nc3c(Br)cc(Br)c(C)c32)c(O)c1
false
O=C1Nc2ccc(S(=O)(=O)Nc3ccc(C(F)(F)F)cc3)cc2C1=Cc1ccc(O)c(Br)c1
false
O=C1Nc2c(Br)cc(Br)cc2C1=Cc1cccc(F)c1
false
Cc1c(Br)ccc2c1C(=Cc1cccc(F)c1O)C(=O)N2
false
Cc1c(Br)ccc2c1C(=Cc1cccc(C(F)(F)F)c1)C(=O)N2
true
Cc1c(Br)cc(Br)c2c1C(=Cc1cccnc1)C(=O)N2
false
O=C1Nc2ccc(CCCl)cc2C1=Cc1cccc(F)c1O
true
CCOc1cccc(C=C2C(=O)Nc3ccc(S(=O)(=O)NC)cc32)c1O
false
CNS(=O)(=O)c1ccc2c(c1)C(=Cc1cc(Cl)ccc1O)C(=O)N2
false
Cc1c(Br)cc(Br)c2c1C(=Cc1cc(C(F)(F)F)cc(C(F)(F)F)c1)C(=O)N2
true
